# Tested on: biotinyl-Val-oxazolone
# experiment-notes: self-aminoacylation, catalytic enhancement (BVO) (fold over background); higher = more active; k-Seq, kA / k0A0; sequences stand for … in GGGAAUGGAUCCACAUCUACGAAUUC…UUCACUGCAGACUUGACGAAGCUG
This sample holds only a part of the variants without activity.
For each of the sequences below, state its self-aminoacylation.
Please give only the number in your answer, with no unit.

Ask: Entry under review: CCAUACUUCAAGCAAUCGGGC [Fam1B.1 aminoacylation ribozyme variant] . Reported self-aminoacylation?
Reply: 1.73

Ask: For CUACUUCCAACAAUUGGUCUG [Fam1A.1 aminoacylation ribozyme variant] then?
Reply: 0.839

Ask: For AUUCAGGUAGGUCAUCGGGUG [Fam2.2 aminoacylation ribozyme variant] then?
Reply: 4.23

Ask: For AUUCACCUAAGUCAACGGGUG [Fam2.2 aminoacylation ribozyme variant] then?
Reply: 2.43

Ask: For GUACUUCAAACAUUCGGUCUG [Fam1A.1 aminoacylation ribozyme variant] then?
Reply: 1.96

Ask: For CCACACGUCAAGCCAUCGGUC [Fam1B.1 aminoacylation ribozyme variant] then?
Reply: 2.45

Ask: For CCACACUUCCAGCAAUGGGUC [Fam1B.1 aminoacylation ribozyme variant] then?
Reply: 1.38

Ask: For CUACUUCAAGCAAUCGGUCUU [Fam1A.1 aminoacylation ribozyme variant] then?
Reply: 1.06

Ask: For AUUCCCCUGGACAUCGAGUGA [Fam2.1 aminoacylation ribozyme variant] then?
Reply: 3.45

Ask: For GCACACUUAAAGCAAUCGGUC [Fam1B.1 aminoacylation ribozyme variant] then?
Reply: 1.18

Ask: For CGACACUUCAAGCAAUCGAUC [Fam1B.1 aminoacylation ribozyme variant] then?
Reply: 0.727

Ask: For AUUCACAUAGCUCAUCGGGUG [Fam2.2 aminoacylation ribozyme variant] then?
Reply: 2.38

Ask: For AUUCACCUAUGGCAUCGGGUG [Fam2.2 aminoacylation ribozyme variant] then?
Reply: 1.94

Ask: For AUUACCCUGAUCAACGAGUGA [Fam2.1 aminoacylation ribozyme variant] then?
Reply: 6.16

Ask: For CUACUUCAAACAAUCUAUCUG [Fam1A.1 aminoacylation ribozyme variant] then?
Reply: 0.579

Ask: For AUUACCCUCGUCAUCGUGUGA [Fam2.1 aminoacylation ribozyme variant] then?
Reply: 1.22

Ask: For AUUUACCUAGCUCAUCGGGUG [Fam2.2 aminoacylation ribozyme variant] then?
Reply: 2.4

Ask: For AUUACCAUGGUCAUGGAGUGA [Fam2.1 aminoacylation ribozyme variant] then?
Reply: 3.34

Ask: For CGACACUUCAAGCAAUCGUUC [Fam1B.1 aminoacylation ribozyme variant] then?
Reply: 0.946

Ask: For AUUAGCCUGGUCAUCGAGUGA [Fam2.1 aminoacylation ribozyme variant] then?
Reply: 4.55

Ask: For GUUACCCUGGUCAUCGAGUGA [Fam2.1 aminoacylation ribozyme variant] then?
Reply: 38.3

Ask: For CCAGACUUCAAGCAAUCGGUU [Fam1B.1 aminoacylation ribozyme variant] then?
Reply: 2.43

Ask: For CUACUUCAAACAAUCGGCCUA [Fam1A.1 aminoacylation ribozyme variant] then?
Reply: 1.16

Ask: For CUACAUCAACCAAUCGGUCUG [Fam1A.1 aminoacylation ribozyme variant] then?
Reply: 0.781

Ask: For CUAAUUCAAUCAAUCGGUCUG [Fam1A.1 aminoacylation ribozyme variant] then?
Reply: 0.72

Ask: For AUUCACCUCGGUCAUCGGGUA [Fam2.2 aminoacylation ribozyme variant] then?
Reply: 3.25

Ask: For AAGUUUUCUAAUCGUCGCAAG [Fam3.1 aminoacylation ribozyme variant] then?
Reply: 1.69

Ask: For CCACACUGCAAGCAAUCGGUU [Fam1B.1 aminoacylation ribozyme variant] then?
Reply: 1.73

Ask: For GCACACUUCGAGCAAUCGGUC [Fam1B.1 aminoacylation ribozyme variant] then?
Reply: 1.81

Ask: For GAGUUUACUAAUAGUCGCAAG [Fam3.1 aminoacylation ribozyme variant] then?
Reply: 1.29

Ask: For AUUCACCUAGAUCAUCGCGUG [Fam2.2 aminoacylation ribozyme variant] then?
Reply: 3.69

Ask: For CUACAAUUCAAGCAAUCGGUC [Fam1B.1 aminoacylation ribozyme variant] then?
Reply: 0.779

Ask: For CUUCUUCAAAAAAUCGGUCUG [Fam1A.1 aminoacylation ribozyme variant] then?
Reply: 0.851

Ask: For AUUUACCAAGGUCAUCGGGUG [Fam2.2 aminoacylation ribozyme variant] then?
Reply: 4.6

Ask: For AUUACCUUGGUCAUCGAGUGG [Fam2.1 aminoacylation ribozyme variant] then?
Reply: 1.45

// data source = the supplement of paper PMC9233669
